experiment: Reactive extraction of 3-HP from clarified fermentation broth into tertiary amine non-polar phase with co-solvents; assay type: physicochemical; conditions: sample 3: Tripentylamine with p-Xylene
Assay Endpoint: % 3-HP raffinate (%)
API: value field is a number in %; no unit string.

May I ask what % 3-HP raffinate has been recorded for O=C(O)CCO [3-HP, 3-hydroxypropionic acid] ? 76

* * *

Reported average MIC Assay Result (g/L 3-HP) values for a set of compounds
system: E. coli; assay: microbe, parasite or virus in culture; format: cell-based; settings: MIC of 3-HP for strain BW25113, M9 media with the named supplement(s), aerobic, 24-hour MIC evaluation
// note: answer is a bare numeric in g/L 3-HP

Sample answers from the record:
- Compound: "Nc1nc(=O)c2c([nH]1)NC[C@@H](CNc1ccc(C(=O)N[C@@H](CCC(=O)O)C(=O)O)cc1)N2 [Tetrahydrofolate (A)]"
  average MIC Assay Result (g/L 3-HP): 30
- Compound: "NCCC[C@H](N)C(=O)O"
  average MIC Assay Result (g/L 3-HP): 30
- Compound: "NCCCCCN"
  average MIC Assay Result (g/L 3-HP): 35

We now examine a further compound.
Any idea what average MIC Assay Result (g/L 3-HP) was measured for NC(CCS)C(=O)O (stereo not shown) ? 30
